Ref: patent US20100003191A1

# reported Biodistribution of radioactivity, Liver; entries follow
Test: In vivo radioactivity biodistribution experiment in normal mice (Example 1, Table 13)
Parameters: species or system ddY mice
Details: liver, 30 min after injection

// below: answered molecules
INSERT INTO assay_data (molecule, endpoint_name, reported_result) VALUES
  ('COc1ccc(/C=C2\Oc3ccc([125I])cc3C2=O)cc1 [[^125I]17]', 'Biodistribution of radioactivity, Liver', '2.76 (0.40) % injected dose per gram'),
  ('Nc1ccc(/C=C2\Oc3ccc([125I])cc3C2=O)cc1 [[^125I]14]', 'Biodistribution of radioactivity, Liver', '7.64 (2.19) % injected dose per gram'),
  ('CNc1ccc(/C=C2\Oc3ccc([125I])cc3C2=O)cc1 [[^125I]12]', 'Biodistribution of radioactivity, Liver', '6.11 (2.16) % injected dose per gram'),
  ('CN(C)c1ccc(/C=C2\Oc3ccc([125I])cc3C2=O)cc1 [[^125I]7]', 'Biodistribution of radioactivity, Liver', '5.60 (0.59) % injected dose per gram');

Consider the additional molecule presented here.
Request: Please look up its Biodistribution of radioactivity, Liver: O=C1/C(=C/c2ccc(O)cc2)Oc2ccc([125I])cc21 [[^125I]20]
Response: 4.23 (0.63) % injected dose per gram
